# ASSAY DETAILS: in vitro
# TEST PARAMETERS: human, hela cells, % viability
Under this convention, satisfied denotes viability at 28.5 h, 10 µM strictly below 90% and not satisfied denotes viability at 28.5 h, 10 µM at or above 90%.

Query string: Is the reported viability at 28.5 h, 10 µM for `CCN(CC)CCN1CCN(c2cc(-c3cccnc3)ncn2)CC1` strictly below 90%?
Result string: not satisfied

Next:
Query string: Is the reported viability at 28.5 h, 10 µM for `C(#Cc1ccc(-c2cc[nH]n2)s1)c1ccccc1` strictly below 90%?
Result string: not satisfied

Query string: Input `c1ccc2c(c1)CCN(Cc1ncc[nH]1)C2`
Result string: not satisfied

Query string: Input `Cc1cccc(C(=O)Nc2ncn(CC(=O)N3CCCCCC3)n2)n1`
Result string: satisfied

Query string: Input COc1ccc(C(=O)C2=C(O)C(=O)N(CCN(C)C)C2c2cccc([N+](=O)[O-])c2)cc1C (stereo not drawn)
Result string: satisfied

Query string: Input CCc1ccc(OCC(O)Cn2nnc(-c3ccc(CN4CCC(C)CC4)cc3)n2)cc1 (stereo not drawn) [CBK161437T]
Result string: not satisfied
